Quick reference for pIC50 among some binders
# SUBJECT OF TEST: T1, human A-beta(1-40) peptide, monomeric (BAM) (human, biotin at the C-terminus in capture ELISA, SPR and TR-FRET; not biotinylated where coated directly (Example 7))
# T1 construct: synthetic peptide (Anaspec), TFA/HFIP treated to give monomer; also called monomeric A-beta
# PROTOCOL SUMMARY: ABII050 TR-FRET competition assay
Note on units: pIC50 is unitless, being -log10 of a concentration expressed in mol/L.

**Q:** Given the binder ABII60A10 = ABII050 (VHH) VHH: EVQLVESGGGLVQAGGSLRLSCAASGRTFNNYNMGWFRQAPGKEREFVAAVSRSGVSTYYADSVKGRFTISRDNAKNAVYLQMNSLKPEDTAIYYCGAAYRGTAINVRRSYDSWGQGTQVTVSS , what is its reported pIC50?
**A:** 8.20

**Q:** Which pIC50 is listed for ABII315-PEG20 (designed binder, PEG20 on the Cys at position 5 of the 9GS linker, 059-9GSC-035; purified as His6-tagged construct before PEGylation) EVQLLESGGGLVQPGGSLRLSCAASGRTFNNYNMGWFRQAPGKGREFVAAVSRSGVSTYYADSVKGRFTISRDNSKNTVYLQMNSLRPEDTAVYYCAAAYRGTAINVRRSYSSWGQGTLVTVSSGGGGCGGGSEVQLLESGGGLVQPGGSLRLSCVHSGPTFRTDTMGWFRQAPGKGREFVAAVTWNSGRINYADSVKGRFTISRDNSKNTAYLQMNSLRPEDTAVYYCAAHRFVVGGNRVEDWRYWGQGTLVTVSS ?
**A:** 9.55

These data points were gathered from patent US20120058118A1.
